Reported values of Ki for individual entries
- EXPERIMENTAL_TARGET: Son of Sevenless (SOS) (Homo sapiens, UniProt Q07889)
- Sequence (Q07889 564-1049 limits assumed): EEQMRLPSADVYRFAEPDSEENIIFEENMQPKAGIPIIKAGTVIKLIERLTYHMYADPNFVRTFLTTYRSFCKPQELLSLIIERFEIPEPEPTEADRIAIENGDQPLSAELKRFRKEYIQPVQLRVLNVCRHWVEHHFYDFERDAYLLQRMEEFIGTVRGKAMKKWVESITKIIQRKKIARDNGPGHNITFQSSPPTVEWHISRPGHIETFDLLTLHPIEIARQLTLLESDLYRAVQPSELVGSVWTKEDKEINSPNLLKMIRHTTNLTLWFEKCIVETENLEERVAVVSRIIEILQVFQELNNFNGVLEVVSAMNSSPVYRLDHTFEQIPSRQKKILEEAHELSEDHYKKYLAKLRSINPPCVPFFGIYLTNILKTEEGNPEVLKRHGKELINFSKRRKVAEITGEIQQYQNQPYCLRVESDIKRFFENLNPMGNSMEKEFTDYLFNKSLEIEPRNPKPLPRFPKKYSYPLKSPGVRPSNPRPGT
- ASSAY_PROCEDURE: Binding to SOS, fluorescence polarization anisotropy (FPA) probe displacement
- EXPERIMENTAL_PARAMETERS: displacement of FITC-conjugated probe (Example 285), affinity calculated from IC50
Counter-ions that a name gives are not always drawn.

Completed entries (count: 6):
molecule="Fc1ccc(Cn2c(N3CCNCC3)nc3ccccc32)cc1 [Example 10, trifluoroacetate]" observed_result="> 5 µM"
molecule="Cc1cc(Cn2c(N3CCNCC3)nc3c(N4CCOCC4)cc(Cl)cc32)cc(C)c1F [Example 312]" observed_result="< 0.5 µM"
molecule="Cc1cc(Cn2c(NCCN)nc3c(N4CCN(C)CC4)cc(Cl)cc32)cc(C)c1F [Example 300]" observed_result="< 0.5 µM"
molecule="CCCN1CC[C@@H](C(=O)c2ccccc2)C1c1cc(Cl)cc2c1nc(N1CCNCC1)n2Cc1cc(C)c(F)c(C)c1 (stereo in doubt) [Example 149, trifluoroacetate]" observed_result="1 to 5 µM"
molecule="Nc1ccccc1-c1cccc2c1nc(N1CCNCC1)n2Cc1ccc(F)c(Cl)c1 [Example 83, trifluoroacetate]" observed_result="1 to 5 µM"
molecule="Cc1cc(NCCN2CCOCC2)c2nc(N3CCNCC3)n(Cc3cc(C)c(F)c(C)c3)c2c1 [Example 193, trifluoroacetate]" observed_result="0.5 to 1 µM"

Reported Son of Sevenless (SOS) (Homo sapiens, UniProt Q07889) Ki for item NCC1CN(c2nc3ccc(Cl)cc3n2Cc2ccc(F)c(Cl)c2)C1 [Example 76, trifluoroacetate] was < 0.5 µM

Reported Son of Sevenless (SOS) (Homo sapiens, UniProt Q07889) Ki for item Cc1cc2c(nc(N3CCNCC3)n2Cc2ccc(F)c(Cl)c2)c(-c2ccnn2-c2ccccc2)c1C [Example 171, trifluoroacetate] was 1 to 5 µM

====

- EXPERIMENTAL_TARGET: Ras GEF SOS (Son of Sevenless) (Homo sapiens, UniProt Q07889)
- Sequence (Q07889 564-1049 limits assumed): as above
- Sequence (P01112 1-166 partner limits assumed): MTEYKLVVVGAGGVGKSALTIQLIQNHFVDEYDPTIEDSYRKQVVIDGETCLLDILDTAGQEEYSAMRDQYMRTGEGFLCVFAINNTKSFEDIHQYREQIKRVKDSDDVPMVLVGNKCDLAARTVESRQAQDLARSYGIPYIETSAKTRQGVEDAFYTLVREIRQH
- ASSAY_PROCEDURE: SOS-mediated nucleotide exchange on Ras (BODIPY-GDP fluorescence)
- EXPERIMENTAL_PARAMETERS: SOS-mediated exchange of BODIPY-GDP for GTP on Ras
- Protocol: Compounds of the present invention were tested for their ability to modify the rate at which Ras exchanges a labeled nucleotide guanosine diphosphate (GDP) analog for guanosine triphosphate (GTP). […] Changes in fluoresence indicating exchange of the labeled GDP for GTP are monitored over time. Raw fluorescence data was fit to a single exponential decay function and derived rates were plotted as mean values. […]
pEC50: −log10 of the molar value. Structures can show the parent of a compound that is named as a salt.
MEASURED_ATTRIBUTE: pEC50

compound="CC[C@H](N)c1cc(C)cc2c1nc(N1CCNCC1)n2Cc1cc(C)c(F)c(C)c1 [Example 161, trifluoroacetate]" experimental_target="Ras GEF SOS (Son of Sevenless) (Homo sapiens, UniProt Q07889)" observed_result="> 6.00"
compound="Fc1ccc(Cn2c(N3CCNCC3)nc3ccccc32)cc1 [Example 10, trifluoroacetate]" experimental_target="Ras GEF SOS (Son of Sevenless) (Homo sapiens, UniProt Q07889)" observed_result="4.00 to 4.52"
compound=Cc1cc(Cn2c(N3CCNCC3)nc3c(OCCN(C)C)cccc32)ccc1F experimental_target="Ras GEF SOS (Son of Sevenless) (Homo sapiens, UniProt Q07889)" observed_result="> 6.00"
compound="NCCNc1nc2ccc(Cl)cc2n1Cc1ccc(F)c(Cl)c1 [Example 74, trifluoroacetate]" experimental_target="Ras GEF SOS (Son of Sevenless) (Homo sapiens, UniProt Q07889)" observed_result="> 6.00"
compound=Cc1cc2nc(NCC3CNC3)n(Cc3ccc(F)c(Cl)c3)c2cc1C experimental_target="Ras GEF SOS (Son of Sevenless) (Homo sapiens, UniProt Q07889)" observed_result="> 6.00"

Reported Ras GEF SOS (Son of Sevenless) (Homo sapiens, UniProt Q07889) pEC50 for item CN(CCCO)Cc1cc(Cl)cc2c1nc(N1CCNCC1)n2Cc1ccc(F)c(Cl)c1 [Example 135, trifluoroacetate] was > 6.00

Reported Ras GEF SOS (Son of Sevenless) (Homo sapiens, UniProt Q07889) pEC50 for item Cc1cc(Cn2c(NCC3CNC3)nc3c(C4=CCNCC4)cc(Cl)cc32)cc(C)c1F was > 6.00

Reported Ras GEF SOS (Son of Sevenless) (Homo sapiens, UniProt Q07889) pEC50 for item Cc1cnc2nc(NCCN)n(Cc3ccc(F)c(C)c3)c2c1 was 5.30 to 6.00
